FYI, the data here is from the supplement of paper PMC6555819.

System: PPARg DBDmut IVT, anti-PPARg (DBD mutation: PPARg1 K132A/R137A, NR concentration 270 nM)
Assay comment: PBM binding z-score (relative to random genomic background probes); higher = stronger binding; sequences stand for … in GC…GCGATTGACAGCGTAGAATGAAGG
Test readout: PBM binding z-score
Form rule: numeric answer, no unit written next to it.

- ACTAGTTGGTCAGCTGAGGTCAAACACAATTCGG: 0.579
- TCATATAGGTAAATGCTAGGTGAAAGTGCGATCT: 0.878
- TCTCGGAGTACACGAAGGTCAGAGCTTTCCAGAG: -1.48
- AGTAAAAGTTCAGGACGAGGTAACGTAAAGCACG: 1.31

What does the data say about its PBM binding z-score? Entry: "AGAATGAGGTTATTAAGATCAGGGCATTGCGGTC"
-0.0431

Next record, please: "TCATATAGGTAAATGGTAGGTGAAAGTCCGATCT"
0.943

Field entry: "CTCGAAAGGTCGGTTGATGTGAGTATACGGATAA"
0.00433

Try this sequence next: "CCAGACAGGTGAAAAGGTAACTCAGCCTCGATTA"
-0.729

Now consider "AGAACGAGCGCACGCTGAGTTGATAGCAGAGTAG" .
-1.39

What would you report for "CAGCCTAGGTCAGGGCCAGCATAGGAGGAACGTT" ?
-1.51

"CGTCTAAGGTCAGAGAGGTCAGTGAATGCCGAGT" ?
-0.453

Consider next the sequence "CCTTACGGTTCAAGGTTATAGCACGGGTGGTACG" in the same way.
-0.14

----------
Each item that follows carries a reported PBM binding z-score.
Tested on: RARa:RXR (NR concentration 270 nM, RXRa partner concentration 90 nM)
Assay comment: PBM binding z-score (relative to random genomic background probes); higher = stronger binding; sequences stand for … in GC…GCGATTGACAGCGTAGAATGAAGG
API doc: respond with a numeric literal and nothing else, no unit.

- AATACAGGGTCATCGTCGGCCAGAGTACGCACAG: 5.31

# query: PBM binding z-score of entry "CCTCCGAGGACAGAAGGTCAGAGCTGTCCGCTTT"
2.49

Another sequence to check: "GCAGACAGGTGAGACGCAGGTAACTCAGGGTGGC"
0.154

Moving on to the next sequence: "AATACAGGGTCCCTAGGCCAGAGTAGGTACGAAT"
-0.409

Then "AGAATGCGGTTATTAAGATCAGGGAATTGCGGTC" ?
-0.457

Lookup "TATAGTTGGTCAAAGGTCACACACTCGAAATGCG"
6.91

----------
System: LXRa:RXRa (NR concentration 270 nM, RXRa partner concentration 90 nM)
Assay comment: PBM binding z-score (relative to random genomic background probes); higher = stronger binding; sequences stand for … in GC…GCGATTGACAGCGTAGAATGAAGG
// PBM binding z-score lookup, one value per entry
Lab note: jot down the number only; don't add units.

• TAGCTTAGGTCATGCGGGCCAGTATAGTGTCGGC = 3.38

# input sequence: "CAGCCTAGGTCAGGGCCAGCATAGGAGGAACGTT" ; wanted: its PBM binding z-score
0.758

// query: "TCGAGTAGGTTTGTCGGGGCATTCAGCCAACATA"
0.103

Another sequence to check: "AGTCAAAGTTCATCTAGGTAACTTAAGATATGCT"
6.19

Query "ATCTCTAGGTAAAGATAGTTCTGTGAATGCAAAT" next
0.239

Okay, and "CAGACTAGGTCACAGAGGTCAAAGTCCGTGCGTA" ?
6.52
